The measured values listed here are drawn from the supplement of paper PMC6757056.

B1: library; a variant is named by its letters at N, in order (parent)
chain: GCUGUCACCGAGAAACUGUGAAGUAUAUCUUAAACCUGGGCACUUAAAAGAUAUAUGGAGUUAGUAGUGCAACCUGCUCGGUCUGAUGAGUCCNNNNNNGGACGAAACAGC

- Variants of: B1
- assay.procedure: normalized RNA/DNA level with ligand (relative to sTRSVctl = 100) (log10 (% of sTRSVctl)); HEK293T; ligand: cyclic di-GMP (c-di-GMP-II aptamer); ligand concentration (+) RNA-Seq: 1 mM; higher = less ribozyme self-cleavage, higher mRNA level
- recorded.conditions: reporter: mCherry (pCS4076), ligand present: yes
attribute.measured: normalized RNA/DNA level with ligand (log10)

UUGGAG; 1.71
AAACCC; 1.86
AAGGUC; 1.75
AGAUUC; 1.85
GGUCAU; 1.83
UACGAU; 1.8
UAAGAC; 1.82
UGGGCG; 1.92
UUGCGC; 1.83
ACAGCG; 1.86
CCGUAC; 1.75
GAGUCC; 1.88
AUCUGG; 1.81
GAGGUG; 1.84
UCUUGA; 1.84
CUUAAU; 1.71
GCCAUG; 1.79
UACCCC; 1.89
UUGUGC; 1.86
CCAGUG; 1.48
CGGGGC; 1.84
UUUAUG; 1.84
ACACGC; 1.76
CCCUAU; 1.8
UGUGGG; 1.86
UGUUUC; 1.92
UGAAAA; 1.82
ACUUUA; 1.76
UGUCGC; 1.85
UCAAAA; 1.68
CUUACG; 1.87
CUAAGG; 1.8
UGGGAG; 1.79
GGUAAG; 1.65
UCACCC; 1.88
CGAAUU; 1.57
AGGCGA; 1.67
UCGGCA; 1.81
CCUCAU; 1.81
AUCGAG; 1.78
GCAAAA; 1.59
CGUAAG; 1.86
AAUUAU; 1.82
GUAGCA; 1.87
CAUUCA; 1.56
GUAAAU; 1.76
UUUAUU; 1.88
AGACAU; 1.79
UCCAAU; 1.82
UAGUCG; 1.91
UCGGUG; 1.78
CCGGAA; 1.47
CAUUAA; 1.46
ACGUUG; 1.74
GUCGUC; 1.78
CUCAAU; 1.71
UCAGCU; 1.82
GUCCUG; 1.83
GCACAC; 1.69
AAGUUA; 1.74
UAUAAU; 1.8
AAGUGA; 1.55
GAUUGC; 1.84
GUAUGU; 1.77
CUAAAA; 1.61
CCGACU; 1.74
CACACA; 1.64
AUGCUU; 1.8
AAUUAG; 1.76
CGAUUG; 1.89
GACCUC; 1.86
AGCGCU; 1.82
UUCUAG; 1.84
AUUCGC; 1.91
UUAGAU; 1.83
AUAGCC; 1.87
ACAGGC; 1.68
UAAGAG; 1.74
AACCUA; 1.71
UCUGUG; 1.91
UUCCGG; 1.93
GUCGGG; 1.84
GUAAUG; 1.75
CAUAGU; 1.85
UGACGU; 1.74
CUAUCU; 1.76
AUUGAC; 1.79
UACCAU; 1.8
UAUUAG; 1.87
CGAGUC; 1.88
GUCGAC; 1.76
